Tested on: Staphylococcus aureus
Assay: Antimicrobial activity against Staphylococcus aureus NCTC 7447 by twofold serial dilution method
Format: functional
observed.property: MIC (µg/mL)

molecule	unit.spec	obs.value
N=c1c2cc(-c3ccc(Cl)cc3)n(-c3ccccc3)c2ncn1N	µg/mL	310
NNc1ncnc2c1cc(-c1ccc(Br)cc1)n2-c1ccccc1	µg/mL	620
Cc1ccc(-c2cc3c(=N)n(N)cnc3n2-c2ccccc2)cc1	µg/mL	620
NNc1ncnc2c1cc(-c1ccc(F)cc1)n2-c1ccccc1	µg/mL	310
N=c1c2cc(-c3ccccc3)n(-c3ccccc3)c2ncn1N	µg/mL	1250
CC1(C)S[C@@H]2[C@H](NC(=O)[C@H](N)c3ccccc3)C(=O)N2[C@H]1C(=O)O [AMPICILLIN]	µg/mL	620
N=c1c2cc(-c3ccc(Br)cc3)n(-c3ccccc3)c2ncn1N	µg/mL	310
C/C=N\c1ncnc2c1cc(-c1ccccc1)n2-c1ccccc1	µg/mL	1250
Cc1nc(N)c2cc(-c3ccc(Cl)cc3)n(-c3ccccc3)c2n1	µg/mL	620
Cc1ccc(-c2cc3c(N)nc(N)nc3n2-c2ccccc2)cc1	µg/mL	620
Nc1nc(N)c2cc(-c3ccc(Cl)cc3)n(-c3ccccc3)c2n1	µg/mL	1250

====

Tested on: Staphylococcus aureus
Test: Antimicrobial activity against Staphylococcus aureus NCTC 7447 by twofold serial dilution method
Assay type: functional
Parameter: MIC. Scope: all listed entries.

smiles.input	target.entity	MIC / µg/mL
Cc1nc(N)c2cc(-c3ccccc3)n(-c3ccccc3)c2n1	Staphylococcus aureus	1250
Nc1nc(N)c2cc(-c3ccccc3)n(-c3ccccc3)c2n1	Staphylococcus aureus	620
Cc1ccc(-c2cc3c(N)ncnc3n2-c2ccccc2)cc1	Staphylococcus aureus	2500
NNc1ncnc2c1cc(-c1ccccc1)n2-c1ccccc1	Staphylococcus aureus	620
